Tested on: MDA-MB-468 spheroids with HUVEC/MSC, viability
Procedure summary: Anticancer human tumor MDA-MB-468 cell line growth inhibition [PI3K];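 note: spheroids exposed to agents for seven days before readout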;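 for viability, T/C: 100% = DMSO vehicle control viability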
Settings: second compound 0.0316 µM; first compound 0.0316 µM; stronger effect = lower value
So basically, if viability, T/C comes in under 70% it's Criterion met, and if it's 70% or more it's Criterion not met.

In the record for C[C@@H](NC(=O)c1ncnc(N)c1Cl)c1ncc(C(=O)Nc2cc(C(F)(F)F)c(Cl)cn2)s1 + Cc1nc(NC(=O)N2CCCC2C(N)=O)sc1-c1ccnc(C(C)(C)C(F)(F)F)c1 , is viability, T/C less than 70%?
Criterion not met

In the record for C=CC(=O)N1CCN(c2nc(=O)n(-c3c(C)ccnc3C(C)C)c3nc(-c4c(O)cccc4F)c(F)cc23)C(C)C1 (stereo not given) + COc1c(OCCCN2CCOCC2)ccc2c3n(c(=NC(=O)c4cnc(N)nc4)nc12)CCN3 , is viability, T/C less than 70%?
Criterion not met

In the record for Cn1nccc1Nc1nccc(-c2ccn(C(CO)c3ccc(Cl)c(F)c3)c(=O)c2)n1 (stereo not given) + CC(Nc1ncnc2nc[nH]c12)c1cc2cccc(Cl)c2c(=O)n1-c1ccccc1 , is viability, T/C less than 70%?
Criterion not met

In the record for CC1(C)CCC(Nc2ncc(C(F)(F)F)c(-c3c[nH]c4c(P(C)(C)=O)c(C#N)ccc34)n2)CN1 (stereo not given) + CC(Nc1ncnc2nc[nH]c12)c1cc2cccc(Cl)c2c(=O)n1-c1ccccc1 , is viability, T/C less than 70%?
Criterion met

In the record for CC(C)NCC(C(=O)N1CCN(c2ncnc3c2C(C)CC3O)CC1)c1ccc(Cl)cc1 (stereo not given) + CC(Nc1ncnc2nc[nH]c12)c1cc2cccc(Cl)c2c(=O)n1-c1ccccc1 , is viability, T/C less than 70%?
Criterion not met

----------
Test system: MDA-MB-468 spheroids with HUVEC/MSC, viability
Procedure summary: Anticancer human tumor MDA-MB-468 cell line growth inhibition [PI3K];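 note: spheroids exposed to agents for seven days before readout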
Settings: compound alone; run of 05/08/2023
Assay endpoint: IC50

// returns reported IC50 for input CC(Nc1ccc2c(c1)OCCn1cc(N3C(=O)OCC3C(F)F)nc1-2)C(N)=O (stereo unspecified)
> 1000 nM

----------
Tested on: MDA-MB-468 spheroids with HUVEC/MSC, viability
Procedure summary: Anticancer human tumor MDA-MB-468 cell line growth inhibition [PI3K]; active = viability on the fitted dose curve at most 10% of control; inactive = the rest;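 note: spheroids exposed to agents for seven days before readout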
Settings: second compound 0.316 µM; first compound 3.16 µM
Would you mind answering with one of these outcomes? yes for active, no for inactive

Recorded test outcome, item C[C@@H](NC(=O)c1ncnc(N)c1Cl)c1ncc(C(=O)Nc2cc(C(F)(F)F)c(Cl)cn2)s1 + CC(Nc1ncnc2nc[nH]c12)c1cc2cccc(Cl)c2c(=O)n1-c1ccccc1
no

Recorded test outcome, item Cn1ncc(Cl)c1-c1cc(C(=O)NC(CN)Cc2cccc(F)c2)sc1Cl (stereo not given) + COc1c(OCCCN2CCOCC2)ccc2c3n(c(=NC(=O)c4cnc(N)nc4)nc12)CCN3
no

Recorded test outcome, item CC1(C)CCC(Nc2ncc(C(F)(F)F)c(-c3c[nH]c4c(P(C)(C)=O)c(C#N)ccc34)n2)CN1 (stereo not given) + Cc1nc(NC(=O)N2CCCC2C(N)=O)sc1-c1ccnc(C(C)(C)C(F)(F)F)c1
yes

Recorded test outcome, item C[C@@H](NC(=O)c1ncnc(N)c1Cl)c1ncc(C(=O)Nc2cc(C(F)(F)F)c(Cl)cn2)s1 + CC(Nc1ccc2c(c1)OCCn1cc(N3C(=O)OCC3C(F)F)nc1-2)C(N)=O
no

Recorded test outcome, item CCCS(=O)(=O)Nc1ccc(F)c(C(=O)c2c[nH]c3ncc(-c4ccc(Cl)cc4)cc23)c1F + CC(Nc1ccc2c(c1)OCCn1cc(N3C(=O)OCC3C(F)F)nc1-2)C(N)=O
no

----------
Tested on: MDA-MB-468 spheroids with HUVEC/MSC, viability
Procedure summary: Anticancer human tumor MDA-MB-468 cell line growth inhibition [PI3K];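 note: spheroids exposed to agents for seven days before readout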;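 for viability, T/C: 100% = DMSO vehicle control viability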
Settings: second compound 0.1 µM; first compound 0.01 µM; stronger effect = lower value
Provide the recorded viability, T/C for the entries that follow.
The reply should be a number in %, with the unit left off.

// returns reported viability, T/C for input CC(C)n1nc(-c2ccc3oc(N)nc3c2)c2c(N)ncnc21 + CC(Nc1ncnc2nc[nH]c12)c1cc2cccc(Cl)c2c(=O)n1-c1ccccc1
66

// returns reported viability, T/C for input Cn1ncnc1[C@H]1c2n[nH]c(=O)c3cc(F)cc(c23)N[C@@H]1c1ccc(F)cc1 + CC(Nc1ccc2c(c1)OCCn1cc(N3C(=O)OCC3C(F)F)nc1-2)C(N)=O
80.2

// returns reported viability, T/C for input CC(=O)c1c(C)c2cnc(Nc3ccc(N4CCNCC4)cn3)nc2n(C2CCCC2)c1=O + Cc1nc(NC(=O)N2CCCC2C(N)=O)sc1-c1ccnc(C(C)(C)C(F)(F)F)c1
97

----------
Test system: MDA-MB-468 spheroids with HUVEC/MSC, viability
Procedure summary: Anticancer human tumor MDA-MB-468 cell line growth inhibition [PI3K];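 note: spheroids exposed to agents for seven days before readout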;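 for viability, T/C: 100% = DMSO vehicle control viability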
Settings: second compound 3.16 µM; first compound 0.000316 µM; stronger effect = lower value
Provide the recorded viability, T/C for the entries that follow.

// returns reported viability, T/C for input Cn1ncnc1[C@H]1c2n[nH]c(=O)c3cc(F)cc(c23)N[C@@H]1c1ccc(F)cc1 + Cc1nc(NC(=O)N2CCCC2C(N)=O)sc1-c1ccnc(C(C)(C)C(F)(F)F)c1
64.7%

// returns reported viability, T/C for input Cn1ncnc1[C@H]1c2n[nH]c(=O)c3cc(F)cc(c23)N[C@@H]1c1ccc(F)cc1 + CC(Nc1ncnc2nc[nH]c12)c1cc2cccc(Cl)c2c(=O)n1-c1ccccc1
55.5%

// returns reported viability, T/C for input CC(C)n1nc(-c2ccc3oc(N)nc3c2)c2c(N)ncnc21 + Cc1nc(NC(=O)N2CCCC2C(N)=O)sc1-c1ccnc(C(C)(C)C(F)(F)F)c1
64.5%

// returns reported viability, T/C for input CC(=O)c1c(C)c2cnc(Nc3ccc(N4CCNCC4)cn3)nc2n(C2CCCC2)c1=O + Cc1nc(NC(=O)N2CCCC2C(N)=O)sc1-c1ccnc(C(C)(C)C(F)(F)F)c1
74.9%

// returns reported viability, T/C for input CC(C)n1nc(-c2ccc3oc(N)nc3c2)c2c(N)ncnc21 + CC(Nc1ncnc2nc[nH]c12)c1cc2cccc(Cl)c2c(=O)n1-c1ccccc1
50.2%

// returns reported viability, T/C for input CC(=O)c1c(C)c2cnc(Nc3ccc(N4CCNCC4)cn3)nc2n(C2CCCC2)c1=O + CC(Nc1ncnc2nc[nH]c12)c1cc2cccc(Cl)c2c(=O)n1-c1ccccc1
59.6%

----------
Tested on: MDA-MB-468 spheroids with HUVEC/MSC, viability
Procedure summary: Anticancer human tumor MDA-MB-468 cell line growth inhibition [PI3K];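 note: spheroids exposed to agents for seven days before readout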;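 for viability, T/C: 100% = DMSO vehicle control viability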
Settings: second compound 10 µM; first compound 0.0316 µM; stronger effect = lower value
Provide the recorded viability, T/C for the entries that follow.
The reply should be a number in %, with the unit left off.

// returns reported viability, T/C for input C=CC(=O)N1CCN(c2nc(=O)n(-c3c(C)ccnc3C(C)C)c3nc(-c4c(O)cccc4F)c(F)cc23)C(C)C1 (stereo unspecified) + CC(Nc1ncnc2nc[nH]c12)c1cc2cccc(Cl)c2c(=O)n1-c1ccccc1
41

// returns reported viability, T/C for input CNC(=O)c1ccc(N2C(=S)N(c3ccc(C#N)c(C(F)(F)F)c3)C(=O)C2(C)C)cc1F + CC(Nc1ncnc2nc[nH]c12)c1cc2cccc(Cl)c2c(=O)n1-c1ccccc1
40.1

// returns reported viability, T/C for input CC1(C)CCC(Nc2ncc(C(F)(F)F)c(-c3c[nH]c4c(P(C)(C)=O)c(C#N)ccc34)n2)CN1 (stereo unspecified) + CC(Nc1ncnc2nc[nH]c12)c1cc2cccc(Cl)c2c(=O)n1-c1ccccc1
12.6

// returns reported viability, T/C for input CC(Cn1ccc(-c2ccc(C#N)c(Cl)c2)n1)NC(=O)c1cc(C(C)O)[nH]n1 (stereo unspecified) + CC(Nc1ncnc2nc[nH]c12)c1cc2cccc(Cl)c2c(=O)n1-c1ccccc1
45.8

// returns reported viability, T/C for input CC(Cn1ccc(-c2ccc(C#N)c(Cl)c2)n1)NC(=O)c1cc(C(C)O)[nH]n1 (stereo unspecified) + Cc1nc(NC(=O)N2CCCC2C(N)=O)sc1-c1ccnc(C(C)(C)C(F)(F)F)c1
33.4

// returns reported viability, T/C for input CNC(=O)c1ccc(N2C(=S)N(c3ccc(C#N)c(C(F)(F)F)c3)C(=O)C2(C)C)cc1F + Cc1nc(NC(=O)N2CCCC2C(N)=O)sc1-c1ccnc(C(C)(C)C(F)(F)F)c1
39.8

// returns reported viability, T/C for input C#Cc1c(F)ccc2cc(O)cc(-c3ncc4c(N5CC6CCC(C5)N6)nc(OCC56CCCN5CC(F)C6)nc4c3F)c12 (stereo unspecified) + CC(Nc1ncnc2nc[nH]c12)c1cc2cccc(Cl)c2c(=O)n1-c1ccccc1
39.2

// returns reported viability, T/C for input CC(C)NCC(C(=O)N1CCN(c2ncnc3c2C(C)CC3O)CC1)c1ccc(Cl)cc1 (stereo unspecified) + CC(Nc1ncnc2nc[nH]c12)c1cc2cccc(Cl)c2c(=O)n1-c1ccccc1
46.4

// returns reported viability, T/C for input CC(C)NCC(C(=O)N1CCN(c2ncnc3c2C(C)CC3O)CC1)c1ccc(Cl)cc1 (stereo unspecified) + Cc1nc(NC(=O)N2CCCC2C(N)=O)sc1-c1ccnc(C(C)(C)C(F)(F)F)c1
32.1

// returns reported viability, T/C for input CCN1CCN(Cc2ccc(Nc3ncc(F)c(-c4cc(F)c5nc(C)n(C(C)C)c5c4)n3)nc2)CC1 + CC(Nc1ncnc2nc[nH]c12)c1cc2cccc(Cl)c2c(=O)n1-c1ccccc1
41

// returns reported viability, T/C for input C=CC(=O)N1CCN(c2nc(=O)n(-c3c(C)ccnc3C(C)C)c3nc(-c4c(O)cccc4F)c(F)cc23)C(C)C1 (stereo unspecified) + Cc1nc(NC(=O)N2CCCC2C(N)=O)sc1-c1ccnc(C(C)(C)C(F)(F)F)c1
43.8
